- TEST DESCRIPTION: inhibitors of TNFa-induced NFkB p65 translocation, primary screen, imaging, HUVEC, MLSMR starter and 10KST1 sets (AID 438);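 note: compound added about 3h40 before a 20 min TNFalpha stimulation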;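 for inhibition: signal is the nuclear over cytoplasmic p65 intensity ratio per well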
- CONDITION LABEL: HUVEC TNFa-induced p65 nuclear translocation; at 2 µM, stronger effect = higher value, 0% TNFa-plus-vehicle, 100% no-TNFa wells
inhibition reference
I only need the number, in %, no unit after it.

- COMPOUND: "COC(=O)C1=C(CSCc2ccco2)NC(=O)NC1c1cc(C)ccc1C (stereo not given)"
  VALUE TYPE: "inhibition"
  TEST RESULT: -10.5
- COMPOUND: "Cc1ccc2c(C)nc(Nc3nc(CSc4nnnn4-c4ccccc4)cc(=O)[nH]3)nc2c1"
  VALUE TYPE: "inhibition"
  TEST RESULT: -3.8
- COMPOUND: "Cc1ccc(NC(=O)c2ccccc2F)nc1"
  VALUE TYPE: "inhibition"
  TEST RESULT: -8.1

Exam item: Which inhibition is reported for this compound? COc1ccc(N2CCN(Cc3cc(=O)oc4cc(C)c(Cl)c(C)c34)CC2)cc1
Marked response: 0.3

Exam item: Which inhibition is reported for this compound? Cc1ccc(CCNC(=O)C2CCN(S(=O)(=O)c3c(C)nn(C)c3C)CC2)cc1
Marked response: 6.1

Exam item: Which inhibition is reported for this compound? O=C(Nc1ccc(Cl)cn1)c1cccnc1
Marked response: -8

Exam item: Which inhibition is reported for this compound? COc1ccc(NC2c3ncccc3C(=O)N2Cc2ccccc2)c(OC)c1 (stereo not given)
Marked response: 1.6

Exam item: Which inhibition is reported for this compound? O=S(=O)(c1ccc(-c2csc(-c3cccnc3)n2)cc1)N1CCCCC1
Marked response: -1.7

Exam item: Which inhibition is reported for this compound? Cc1nn(Cc2ccc(C(=O)NC3CCCCC3)o2)c(C)c1Br
Marked response: -0.6

====

inhibition reference
- TEST DESCRIPTION: TLR3 IRF3 reporter activation blockers – cell-based, poly I:C stimulus, luciferase, 10K MLSCN set, primary screen (AID 602277)
- CONDITION LABEL: HEK293-TLR3 RL24 IRF3 luciferase reporter, at 10 µM, stronger effect = higher value
I only need the number, in %, no unit after it.

Previously resolved entries follow.
- COMPOUND: "NC(=O)CCS(=O)(=O)CCN1CCCCC1"
  QUANTITY UNIT: "%"
  inhibition: 23.8
- COMPOUND: "Cc1ccccc1C(=O)Nc1c(C(=O)N2CCCC2)cnn1-c1ccccc1"
  QUANTITY UNIT: "%"
  inhibition: 26.1
- COMPOUND: "COc1ccc(S(=O)(=O)N2Cc3ccccc3CC2C(=O)Nc2ccc(O)cc2)cc1OC (stereo unspecified)"
  QUANTITY UNIT: "%"
  inhibition: 29.5
- COMPOUND: "O=S(=O)(c1ccc(Br)s1)N1CCN(c2ccccc2)CC1"
  QUANTITY UNIT: "%"
  inhibition: 13.7

Exam item: Which inhibition is reported for this compound? Cc1cc(-c2ccccc2)c(C#N)c(N)n1
Marked response: 34.2

Exam item: Which inhibition is reported for this compound? CCc1[nH]nc2c1C(c1cccc(OC(=O)N3CCOCC3)c1)C(C#N)=C(N)O2 (stereo unspecified)
Marked response: 22.7

Exam item: Which inhibition is reported for this compound? COc1cccc(NC(=O)N[C@@H](Cc2ccccc2)C(=O)O)c1
Marked response: 15.1

Exam item: Which inhibition is reported for this compound? COc1nc(NCCc2ccc(OC)c(OC)c2)nc(NC(C)(C)CO)n1
Marked response: 11.8

Exam item: Which inhibition is reported for this compound? Cc1[nH]c(C(=O)N2CCCCC2)c(C)c1C(=O)NC1CCCCC1
Marked response: 4.54

Exam item: Which inhibition is reported for this compound? CCOC(=O)C(NC(=O)OC(C)C)(Nc1nccs1)C(F)(F)F (stereo unspecified)
Marked response: 27.8

====

- TEST DESCRIPTION: blockers of RIG-like receptor reporter activation – cell-based, Sendai virus stimulus, luciferase, 10K MLSCN set, TLR/RLR signaling modifier project, primary screen (AID 602276);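 note: firefly luciferase from ISG56 promoter only with Renilla not read in this screen; 0% = Sendai virus plus DMSO and 100% = medium plus DMSO without virus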
- CONDITION LABEL: HEK293 RL24 IRF3 luciferase reporter, at 10 µM, stronger effect = higher value
inhibition reference
I only need the number, in %, no unit after it.

Exam item: Which inhibition is reported for this molecule? COc1ccccc1C(=O)N1CCN(C(=O)c2ccncc2)CC1
Marked response: 8.46

Exam item: Which inhibition is reported for this molecule? COC(=O)Nc1ccccc1C(=O)N1CCCCC1
Marked response: 6.49

Exam item: Which inhibition is reported for this molecule? Cc1ccc(S(=O)(=O)N2CCOCC(=O)NCCOCCNC(=O)COCC2)cc1
Marked response: 9.52

Exam item: Which inhibition is reported for this molecule? Cc1csc(NC(=O)C(Cc2ccccc2)n2cccc2)n1 (stereo not drawn)
Marked response: 1.35

Exam item: Which inhibition is reported for this molecule? O=C(NCC1CCCO1)C1CCN(c2ccc(S(=O)(=O)N3CCCC3)cc2)CC1 (stereo not drawn)
Marked response: 5.23

Exam item: Which inhibition is reported for this molecule? Oc1ccccc1-c1cc(C(F)(F)C(F)F)[nH]n1
Marked response: -13.1

Exam item: Which inhibition is reported for this molecule? CC1(C)CC(=O)C(C#N)=C(NCCCO)C1
Marked response: 11.1

Exam item: Which inhibition is reported for this molecule? O=C(c1ccc(Cl)cc1)N1CCCCC(Sc2nnc(-c3ccc4c(c3)OCO4)o2)C1=O (stereo not drawn)
Marked response: -180

Exam item: Which inhibition is reported for this molecule? C=CCc1cccc2cc(C(=O)NCc3cccnc3)c(=O)oc12
Marked response: -3.91

Exam item: Which inhibition is reported for this molecule? COC(=O)c1ccccc1NC(=O)c1ccc(-c2ccccc2F)o1
Marked response: 19.2

Exam item: Which inhibition is reported for this molecule? Cn1nc(C(=O)N2CCOCC2)c2ccccc2c1=O
Marked response: 9.89

Exam item: Which inhibition is reported for this molecule? O=C(c1ccc(CNS(=O)(=O)c2cccc(C(F)(F)F)c2)cc1)N1CCOCC1
Marked response: 14.8

Exam item: Which inhibition is reported for this molecule? COC(=O)c1ccccc1NC(=O)N1CCCC1
Marked response: -4.5

====

- TEST DESCRIPTION: inhibitors of TNFa-induced NFkB p65 translocation, primary screen, imaging, HUVEC, MLSMR starter and 10KST1 sets (AID 438);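 note: compound added about 3h40 before a 20 min TNFalpha stimulation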;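 for inhibition: signal is the nuclear over cytoplasmic p65 intensity ratio per well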
- CONDITION LABEL: HUVEC TNFa-induced p65 nuclear translocation; at 2 µM, stronger effect = higher value, 0% TNFa-plus-vehicle, 100% no-TNFa wells
inhibition reference
I only need the number, in %, no unit after it.

Exam item: Which inhibition is reported for this compound? CC1(C)Cc2cccc(OCC(=O)O)c2O1
Marked response: -2.7

Exam item: Which inhibition is reported for this compound? CSCCC(NC(=O)c1ccco1)C(=O)OC(C)C(=O)NC(=O)NC1CCCCC1 (stereo unspecified)
Marked response: -6.1

====

- TEST DESCRIPTION: inhibitors of TNFa-induced NFkB p65 translocation, primary screen, imaging, HUVEC, MLSMR starter and 10KST1 sets (AID 438);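 note: compound added about 3h40 before a 20 min TNFalpha stimulation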
- CONDITION LABEL: HUVEC TNFa-induced p65 nuclear translocation; measured here: nuclei count (cytotoxicity indicator), at 2.08 µM
Parameter threshold = 600. Response is 1 (yes) when cell count meets or exceeds it, else 0 (no).

- MOLECULE: "COc1cc2nc(SCC(=O)NC3CC3)n(CCC3=CCCCC3)c(=O)c2cc1OC"
  ASSIGNED CLASS: "1 (yes)"
- MOLECULE: "COC(=O)CNc1nc(C2CC2)nc2c1nnn2Cc1ccccc1Cl"
  ASSIGNED CLASS: "0 (no)"
- MOLECULE: "O=C(c1ccc(CNS(=O)(=O)c2cccc(C(F)(F)F)c2)cc1)N1CCOCC1"
  ASSIGNED CLASS: "0 (no)"
- MOLECULE: "O=C(Nc1ccc(N2CCOCC2)cc1)c1cc2ccccc2o1"
  ASSIGNED CLASS: "1 (yes)"

Let us examine a further case.
Exam item: Check the entry CC1=C(C(=O)OC2CCCC2)C(c2ccc(C)o2)C2=C(CC(c3cccs3)CC2=O)N1 (configuration not stated) : does cell count equal or exceed 600?
Marked response: 0 (no)

====

- TEST DESCRIPTION: endothelial E-selectin expression blockers – imaging, HUVEC, immunofluorescence, MLSMR starter and 10KST1 sets, primary screen (AID 487);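 note: signal is fraction of cell area covered by stained E-selectin grains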
- CONDITION LABEL: HUVEC TNFalpha-induced E-selectin immunofluorescence imaging, at 2 µM; stronger effect = higher value
Parameter threshold = -20%. Response is Condition met when inhibition meets or exceeds it, else Condition not met.

Worked examples follow.
- COMPOUND: "CN1/C(=C\\C(=O)Nc2cccnc2)c2ccccc2CC1(C)C"
  ASSIGNED CLASS: "Condition not met"
- COMPOUND: "CC1(C)CC(=O)C(C=Nc2ccc3c(c2)OCO3)=C(O)C1"
  ASSIGNED CLASS: "Condition not met"
- COMPOUND: "[O-][n+]1c2ccc3nonc3c2nn1-c1ccccc1Cl"
  ASSIGNED CLASS: "Condition not met"
- COMPOUND: "CCOC(=O)C1CCCN(CC(=O)NC2CC2)C1 (configuration not stated)"
  ASSIGNED CLASS: "Condition not met"
- COMPOUND: "CCOC(=O)c1[nH]c(C)c(C(=O)NCC2CCCO2)c1C (configuration not stated)"
  ASSIGNED CLASS: "Condition met"

Exam item: Check the entry Cc1noc(C)c1COc1cccc(C(=O)Nc2ccc(C#N)cc2)c1 : does inhibition equal or exceed -20%?
Marked response: Condition met

Exam item: Check the entry CCOC(=O)C1CCCN(C(=O)c2cn(C)c(=O)c3cc(OC)c(OC)cc23)C1 (configuration not stated) : does inhibition equal or exceed -20%?
Marked response: Condition met
